# assayedTarget: human P2X4 (Homo sapiens, UniProt Q99571)
# Sequence (Q99571 1-388): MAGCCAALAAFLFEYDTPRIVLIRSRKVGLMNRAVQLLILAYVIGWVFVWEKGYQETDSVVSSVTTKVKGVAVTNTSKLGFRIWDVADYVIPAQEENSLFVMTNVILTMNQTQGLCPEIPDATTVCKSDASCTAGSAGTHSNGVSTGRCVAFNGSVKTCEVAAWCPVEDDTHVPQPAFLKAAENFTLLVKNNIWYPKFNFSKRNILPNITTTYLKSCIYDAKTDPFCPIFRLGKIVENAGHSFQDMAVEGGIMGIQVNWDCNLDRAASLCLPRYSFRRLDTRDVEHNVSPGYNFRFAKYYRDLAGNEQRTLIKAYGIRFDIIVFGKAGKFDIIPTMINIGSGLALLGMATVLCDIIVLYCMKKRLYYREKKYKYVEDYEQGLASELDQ
# assayProtocol: Human P2X4 HEK Cell FLIPR Assay
# Assay type: cell-based
# Parameters: expressed in transfected cells; host or cells: HEK293
# protocolConditions: HEK293 cells, agonist Bz-ATP at EC80
pIC50: −log10 of the molar value.
propertyName: pIC50

Take a look at these entries with their results.
NS(=O)(=O)c1cc(NC(=O)Cc2ccccc2F)cnc1-n1cc(C(F)(F)F)cn1 | 5.91
NS(=O)(=O)c1cc(NC(=O)Cc2ccccc2Cl)ccc1-c1cnn(C(F)F)c1 | 7.77
NS(=O)(=O)c1cc(NC(=O)Cc2ccccc2Cl)ccc1-c1cnn(C2CC2)c1 | 7.43
Cn1cc(-c2ccc(NC(=O)Cc3ccccc3Cl)cc2S(N)(=O)=O)cn1 | 6.88
NS(=O)(=O)c1cc(NC(=O)Cc2ccccc2Cl)ccc1-n1cc(F)cn1 | 7.57
NS(=O)(=O)c1cc(NC(=O)Cc2ccccc2F)ccc1-n1cc(C(F)(F)F)cn1 | 6.85
NS(=O)(=O)c1cc(NC(=O)Cc2ccccc2Cl)ccc1-n1cc(C(F)(F)F)cn1 | 7.33
NS(=O)(=O)c1cc(NC(=O)Cc2ccccc2Cl)ccc1-n1cc(Cl)cn1 | 7.59

I = NS(=O)(=O)c1cc(NC(=O)Cc2ccccc2Cl)cnc1-n1cc(Cl)cn1
II = COc1ccc(CC(=O)Nc2ccc(-n3cc(Cl)cn3)c(S(N)(=O)=O)c2)cc1
III = NS(=O)(=O)c1cc(NC(=O)Cc2ccccc2Cl)cnc1-n1cc(C(F)(F)F)cn1
Rank items: key pIC50, increasing. Returns: the labels listed in the requested order. III, II, I
(III: 6.52, II: 6.90, I: 7.47)

A = NS(=O)(=O)c1cc(NC(=O)Cc2ccccc2Cl)ccc1-n1cnc(Cl)n1
B = NS(=O)(=O)c1cc(NC(=O)Cc2ccccc2F)cnc1-c1cnn(C(F)F)c1
Two entries are listed, A and B . Which one carries the higher pIC50? // respond with label for picked entry A
(A: 7.35, B: 7.06)

* * *

# assayedTarget: human P2X4 (Homo sapiens, UniProt Q99571)
# assayProtocol: FLIPR assay, human P2X4 1321N1 Astrocytoma Cells
# Assay type: cell-based
# Set-up: expressed in transfected cells
# protocolConditions: agonist Mg-ATP at EC80
propertyName: IC50 (nM)

NS(=O)(=O)c1cc(NC(=O)Cc2ccccc2Cl)ccc1-c1cnn(C(F)F)c1 [Example 326] | 46
NS(=O)(=O)c1cc(NC(=O)Cc2ccccc2Cl)ccc1-n1cc(C(F)(F)F)cn1 [Example 19] | 57
N#Cc1cnn(-c2ccc(NC(=O)Cc3ccccc3Cl)cc2S(N)(=O)=O)c1 [Example 39] | 64
